# target.under.test: recombinant human Mcl-1 (residues 171-327) / Bim interaction (Homo sapiens (Human))
# assay.overview: biochemical
# Type: binding
# setup.conditions: TR-FRET, Mcl-1(171-327) / biotin-Bim (51-76); read-out: Mcl-1 HTRF IC50
Assignment: determine reported log10 of IC50 for the given compounds.
Would you kindly interpret these values as log10 of IC50 expressed in nM?

1. C[C@@H]1[C@@H](C)C/C=C/[C@@](O)(c2ccncc2F)[C@@H]2CC[C@H]2CN2C[C@@]3(CCCc4cc(Cl)ccc43)COc3ccc(cc32)C(=O)NS1(=O)=O (single isomer, unassigned) : -0.82
2. CC(C)[C@]1(O)/C=C/C[C@H](C)[C@@H](C)S(=O)(=O)NC(=O)c2ccc3c(c2)N(C[C@@H]2CC[C@H]21)C[C@@]1(CCCc2cc(Cl)ccc21)CO3 : -0.37
3. CO[C@@]1(c2csc(C)n2)/C=C/C[C@H](C)[C@@H](C)S(=O)(=O)NC(=O)c2ccc3c(c2)N(C[C@@H]2CC[C@H]21)C[C@@]1(CCCc2cc(Cl)ccc21)CO3 : 0.03
4. CO[C@@H](C(=O)N(C)C)[C@@]1(O)/C=C/C[C@H](C)[C@@H](C)S(=O)(=O)NC(=O)c2ccc3c(c2)N(C[C@@H]2CC[C@H]21)C[C@@]1(CCCc2cc(Cl)ccc21)CO3 : -0.33
5. C[C@@H]1[C@@H](C)CCC[C@@](O)([C@@H]2OCCN(C)C2=O)[C@@H]2CC[C@H]2CN2C[C@@]3(CCCc4cc(Cl)ccc43)COc3ccc(cc32)C(=O)NS1(=O)=O : -0.69
6. C[C@@H]1[C@@H](C)C/C=C/[C@@]2(COCCO2)[C@@H]2CC[C@H]2CN2C[C@@]3(CCCc4cc(Cl)ccc43)COc3ccc(cc32)C(=O)NS1(=O)=O [Example 100233] : 0.02

Quick request: log10 of IC50 for each listed item, please.
1. Cc1onc(C[C@@]2(O)/C=C/C[C@H](C)[C@@H](C)S(=O)(=O)NC(=O)c3ccc4c(c3)N(C[C@@H]3CC[C@H]32)C[C@@]2(CCCc3cc(Cl)ccc32)CO4)c1C
2. C[C@@H]1[C@@H](C)C[C@@H](N(C)C)C[C@](C)(O)[C@@H]2CC[C@H]2CN2C[C@@]3(CCCc4cc(Cl)ccc43)COc3ccc(cc32)C(=O)NS1(=O)=O
3. C[C@@H]1[C@@H](C)C/C=C/[C@@](O)(c2nc(CO)nn2C)[C@@H]2CC[C@H]2CN2C[C@@]3(CCCc4cc(Cl)ccc43)COc3ccc(cc32)C(=O)NS1(=O)=O
4. C[C@@H]1[C@@H](C)C/C=C/[C@@](O)(c2cncnc2)[C@@H]2CC[C@H]2CN2C[C@@]3(CCCc4cc(Cl)ccc43)COc3ccc(cc32)C(=O)NS1(=O)=O (single isomer, unassigned)

[0.32, 0.37, -0.67, -0.79]

###

# target.under.test: recombinant human Mcl-1 (residues 171-327) / Bim interaction (Homo sapiens (Human), UniProt Q07820)
# Sequence (Q07820 171-327): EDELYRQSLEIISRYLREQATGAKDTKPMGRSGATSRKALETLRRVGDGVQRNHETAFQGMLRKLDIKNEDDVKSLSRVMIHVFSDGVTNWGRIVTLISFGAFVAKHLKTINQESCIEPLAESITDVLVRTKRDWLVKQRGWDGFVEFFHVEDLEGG
# assay.overview: biochemical
# Format: binding
# setup.conditions: read-out: Mcl-1 HTRF IC50
measured.endpoint: IC50 (nM)
One number for each entry, in nM.

Examples with answers:
1. CO[C@]1(CC(=O)C(C)C)/C=C/C[C@H](C)[C@@H](C)S(=O)(=O)NC(=O)c2ccc3c(c2)N(C[C@@H]2CC[C@H]21)C[C@@]1(CCCc2cc(Cl)ccc21)CO3 : 1.38
2. C[C@@H]1[C@@H](C)C/C=C/[C@@](O)(CS(=O)(=O)N(C)C)[C@@H]2CC[C@H]2CN2C[C@@]3(CCCc4cc(Cl)ccc43)COc3ccc(cc32)C(=O)NS1(=O)=O (single isomer, unassigned) : 0.032

Entry CC#C[C@]1(O)CCC[C@H](C)[C@@H](C)S(=O)(=O)NC(=O)c2ccc3c(c2)N(C[C@@H]2CC[C@H]21)C[C@@]1(CCCc2cc(Cl)ccc21)CO3 [Example 100267] : reported IC50 = ?
0.166
